- System: Helianthus annuus
- procedure.summary: Postemergence herbicidal activity (Example 67)
- Assay type: in vivo
- run.parameters: pos, 800 g/ha
Each item that follows carries a reported HEL AN rating.

>  <compound>
CC(NC(=O)c1nc(-c2cccc(Cl)n2)ns1)c1cccs1 (racemic)

>  <HEL AN rating>
5 (45-64%)

$$$$
>  <compound>
C[C@H](NC(=O)c1nc(-c2cccc(F)c2)ns1)c1ccccc1

>  <HEL AN rating>
8 (91-99%)

$$$$
>  <compound>
O=C(Nc1ccc(F)cc1)c1nsc(-c2cccc(C(F)(F)F)c2)n1

>  <HEL AN rating>
0

$$$$
>  <compound>
C[C@H](NC(=O)c1nc(-c2cccc(Cl)n2)ns1)c1ccccc1

>  <HEL AN rating>
8 (91-99%)

$$$$
>  <compound>
CC(NC(=O)c1nc(-c2cccc(F)c2)ns1)c1cccs1 (racemic)

>  <HEL AN rating>
3 (16-29%)

$$$$
>  <compound>
C[C@H](NC(=O)c1nsc(-c2ccc(F)cc2)n1)c1ccccc1

>  <HEL AN rating>
9 (100% effect)

$$$$

====

- Tested on: Triticum aestivum
- procedure.summary: Postemergence herbicidal activity (Example 67)
- Format: in vivo
- run.parameters: pos; 800 g/ha; rated after 10-21 days
- Protocol: Herbicidal evaluation of compounds of the invention is conducted on the following plant species: The soil is a prepared horticultural substrate containing 30% peat, 20% volcanic clay, 30% bark residues and 20% polyamide/styromull in a 1:3 mixture with loamy sand. […] After 10-21 days, the treated plants are evaluated and rated according to the rating system provided below.
Each item that follows carries a reported herbicide rating, TRZAW.

>  <compound>
C[C@H](NC(=O)c1nc(C=Cc2ccccc2)ns1)c1ccccc1

>  <herbicide rating, TRZAW>
2 (6-15%)

$$$$
>  <compound>
CC(NC(=O)c1nc(C=Cc2ccccc2)ns1)c1cccs1 (racemic)

>  <herbicide rating, TRZAW>
0

$$$$
>  <compound>
CC(NC(=O)c1nsc(-c2cccc(C(F)(F)F)c2)n1)c1cccs1 (racemic)

>  <herbicide rating, TRZAW>
2 (6-15%)

$$$$
>  <compound>
O=C(NCc1cccs1)c1nc(C=Cc2ccccc2)ns1

>  <herbicide rating, TRZAW>
0

$$$$
>  <compound>
COc1ccc(-c2nsc(C(=O)N[C@@H](C)c3ccccc3)n2)cc1

>  <herbicide rating, TRZAW>
2 (6-15%)

$$$$
>  <compound>
COc1ccc(-c2nsc(C(=O)NC(C)c3ccc(C)s3)n2)cc1 (racemic)

>  <herbicide rating, TRZAW>
3 (16-29%)

$$$$
>  <compound>
COc1ccc(-c2nsc(C(=O)NCc3cccs3)n2)cc1

>  <herbicide rating, TRZAW>
3 (16-29%)

$$$$
>  <compound>
CC(NC(=O)c1nc(-c2ccccc2F)ns1)c1cccs1 (racemic)

>  <herbicide rating, TRZAW>
3 (16-29%)

$$$$
>  <compound>
COCCc1nsc(C(=O)N[C@@H](C)c2ccccc2)n1

>  <herbicide rating, TRZAW>
3 (16-29%)

$$$$
>  <compound>
CCCCc1nsc(C(=O)NCc2cccs2)n1

>  <herbicide rating, TRZAW>
2 (6-15%)

$$$$
>  <compound>
CC(NC(=O)c1nsc(-c2ccc(F)cc2)n1)c1cccs1 (racemic)

>  <herbicide rating, TRZAW>
3 (16-29%)

$$$$
>  <compound>
COCCc1nsc(C(=O)NC(C)c2cccs2)n1 (racemic)

>  <herbicide rating, TRZAW>
2 (6-15%)

$$$$
>  <compound>
CC(NC(=O)c1nc(-c2ccc(Cl)cc2)ns1)c1cccs1 (racemic)

>  <herbicide rating, TRZAW>
2 (6-15%)

$$$$
>  <compound>
CCCCc1nsc(C(=O)N[C@@H](C)c2ccccc2)n1

>  <herbicide rating, TRZAW>
3 (16-29%)

$$$$
>  <compound>
CCCCc1nsc(C(=O)NC(C)c2cccs2)n1 (racemic)

>  <herbicide rating, TRZAW>
2 (6-15%)

$$$$
>  <compound>
COc1ccc(-c2nsc(C(=O)NC(C)c3cccs3)n2)cc1 (racemic)

>  <herbicide rating, TRZAW>
3 (16-29%)

$$$$
>  <compound>
C[C@H](NC(=O)c1nc(-c2ccc(Cl)cc2)ns1)c1ccccc1

>  <herbicide rating, TRZAW>
2 (6-15%)

$$$$
